# System: CEM cells HIV-1 protection, formazan growth assay
# PROCEDURE_TEXT: NCI AIDS Antiviral Assay
pEC50: −log10 of the molar value.
OBSERVABLE: pEC50

1) CC(=O)OC1CCC2(C)CC3C=CC2(OO3)C1(C)C (stereo not drawn) : < 3.70
2) CC1(C)CC(=O)C(=CN2C(=O)CNC2=S)C(=O)C1 : < 3.70
3) COC(=O)C1CC23CC1(OC(C)=O)CCC2c1ccc(OC)cc1C3=O (stereo not drawn) : < 4.21

====

# System: CEM cells HIV-1 protection, formazan growth assay
# PROCEDURE_TEXT: NCI AIDS Antiviral Assay
# APPLIED_CONDITIONS: measured here: growth of uninfected CEM cells
OBSERVABLE: IC50

1. CN(C)CCN1C(=O)CC(c2ccccc2)Sc2ccccc21 (centres undefined) : > 245 µM
2. COC(=O)C(C(=O)C(=O)Nc1c(C)cccc1C(C)(C)C)c1nc2ccc(Cl)cc2[nH]c1=O (centres undefined) : > 55 µM
3. Cc1nc(Nc2ccccc2)sc1C(=O)CC(=O)C(=O)Nc1c(C(C)C)cccc1C(C)C : > 77.6 µM
4. CN(C)c1ccc(C=C2C=CC=C2)cc1 : > 19.1 µM

====

Quick reference: IC50 of the listed items.
# System: CEM cells HIV-1 protection, formazan growth assay
# PROCEDURE_TEXT: NCI AIDS Antiviral Assay
# APPLIED_CONDITIONS: measured here: growth of uninfected CEM cells
OBSERVABLE: IC50

1. Cc1cc2c(c(=O)[nH]1)C(=O)OC2 : > 1100 µM
2. C[N+]12CCCCC1CC(=O)CC2 (stereo not drawn) : > 851 µM
3. CCOC(=O)C(Cc1c[nH]c2ccc(N)cc12)(NC(C)=O)C(=O)OCC : > 200 µM
4. O=C(O)c1ccccc1C(=O)c1ccc(O)cc1 : > 200 µM
5. CCCCC(/C=N/Nc1ccc([N+](=O)[O-])cn1)CC (stereo not drawn) : > 200 µM
6. NC(=O)CNC(=O)c1ccc([As](=O)(O)O)cc1 : > 200 µM
7. N=C(N)N1CCC(N2CCOCC2)CC1 : > 200 µM
8. Cn1c(=O)n(-c2c3ccccc3c(Cl)c3ccccc23)n(C(C)(C)C)c1=O : > 100 µM
9. Cc1nc(Nc2ccc(Cl)cc2)sc1C(=O)Nc1cccc2c(=O)[nH][nH]c(=O)c12 : > 17 µM
10. NC1=CN(CCCO)C2=N/C(=C\c3ccccc3)C(=O)N12 : > 200 µM
11. NC(CSSCC(NC(=O)c1ccccc1)C(=O)O)C(=O)O (stereo not drawn) : > 200 µM
12. NC(=O)N/N=C\CC(O)(C(F)(F)Cl)C(F)(F)Cl : > 200 µM
13. CC1(C)C2CCC(CN)(C2)C1N (stereo not drawn) : > 200 µM

====

// EC50 lookup, one value per entry
# System: CEM cells HIV-1 protection, formazan growth assay
# PROCEDURE_TEXT: NCI AIDS Antiviral Assay
OBSERVABLE: EC50

1. CC1(Cl)CCC2(CC1Br)C(C)(C)C(Br)=CC1OC12C (centres undefined) : > 200 µM
2. [O-]/C(=C\[P+](c1ccccc1)(c1ccccc1)c1ccccc1)c1ccccc1 : > 200 µM
3. CCOC(=O)CCC(NC(=O)c1ccc(N2CCN(c3c(C)nc(N)nc3N)CC2)cc1)C(=O)OCC (centres undefined) : > 0.2 µM
4. O=[N+]([O-])c1ccc(OCc2nc3ccccc3[nH]2)cc1 : > 200 µM
